Catalogue of binders with associated binding score
Target: T1, Bdf1 bromodomain 1 (GST-tagged, WT) (Saccharomyces cerevisiae (strain ATCC …, UniProt P35817))
T1 chain: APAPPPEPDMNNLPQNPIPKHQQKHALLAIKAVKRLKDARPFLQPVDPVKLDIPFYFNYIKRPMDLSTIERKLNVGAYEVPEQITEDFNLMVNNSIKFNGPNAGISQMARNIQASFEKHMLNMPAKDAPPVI
Experiment: histone peptide array probed with recombinant GST-bromodomain, signal normalised to myc peptide control
Non-standard residues stand in square brackets, D forms with d. No end group written: not given here. Arg(Me2a) = CN(C)C(=N)NCCC[C@H](N)C(=O)O; Lys(Me3) = C[N+](C)(C)CCCC[C@H](N)C(=O)O; Arg(Me2s) = CN=C(NC)NCCC[C@H](N)C(=O)O; pT = C[C@@H](OP(=O)(O)O)[C@H](N)C(=O)O; Lys(Me2) = CN(C)CCCC[C@H](N)C(=O)O
Reported Metric: binding score

[[record]]
binder = "ARTKQTARKSTGGKAPRKQ (A Rme2a T Kme3 Q T A Rme2s Kme3 S T G G K A P R K Q)"
val = 0

[[record]]
binder = "ARTKQTARKSTGGKAPRKQ (A R T Kme1 Q T A Rme2s Kme3 S T G G K A P R K Q)"
val = 0

[[record]]
binder = "ARTKQTARKSTGGKAPRKQ (A Rme2s T Kme3 Q T A R Kme3 S T G G K A P R K Q)"
val = 0.0117

[[record]]
binder = "A[Arg(Me2s)]T[Lys(Me2)]QTA[Arg(Me2s)][Lys(Me3)]STGGKAPRKQ"
val = 0

[[record]]
binder = "ARTKQTARKSTGGKAPRKQ (A Rme2a T Kme1 Q T A Rme2a K S T G G K A P R K Q)"
val = 0.00341

[[record]]
binder = "ARTKQTARKSTGGKAPRKQ (A R T K Q T A R K pS T G G K A P R K Q)"
val = 0

[[record]]
binder = "ARTKQTA[Arg(Me2a)][Lys(Me3)]S[pT]GGKAPRKQ"
val = 0

